- measurementProtocol: NCI Yeast Anticancer Drug Screen. Data for the bub3 strain (AID 167)
- testParameters: S. cerevisiae bub3 mutant strain, at 50.0 µM (retest, dose inferred, filed as 5.0), hits give high values
About 79,000 compounds went through this panel and 15% of them were active in at least one assay; those are over-represented in the sample as a whole. The source made the active and inactive calls. Rule as the data show it: active = growth inhibition above about 70%; inactive = the rest.
Quick reference for growth inhibition among some compounds

Below are worked cases with known answers.
Given `O=C([CH-]C(=O)c1ccccc1)c1ccccc1.O=C([CH-]C(=O)c1ccccc1)c1ccccc1.O=C([CH-]C(=O)c1ccccc1)c1ccccc1.[Nd+3].[OH3+]` , respond with its growth inhibition.
99% (active)

Given `CC(=O)OC[C@]12C[C@H](OC(=O)CC(C)C)C(C)=C[C@H]1OC1[C@H](O)[C@@H](OC(C)=O)[C@@]2(C)[C@@]12CO2` , respond with its growth inhibition.
99% (active)

Given CC(=O)C(CN(C)Cc1ccccc1)C(c1ccccc1)c1c(O)c2ccccc2oc1=O (centres undefined) , respond with its growth inhibition.
-1% (inactive)

Given C[N+](C)(C)CC1Cc2ccccc2C1=O (centres undefined) , respond with its growth inhibition.
99% (active)

Next:
Given `O=[N+]([O-])c1cccc(SC(Cl)(Cl)Cl)c1` , respond with its growth inhibition.
99% (active)

Given `CC(C)=CCC/C(C)=C/CC/C(C)=C/Cc1c(O)c2ccccc2oc1=O` , respond with its growth inhibition.
95% (active)

Given `[Cl][Sn]([CH2]c1ccccc1)([CH2]c1ccccc1)[CH2]c1ccccc1` , respond with its growth inhibition.
99% (active)

Given `CCCCCCCCCCCCCC(=O)O[C@H]1CC[C@H](NC(=O)[C@H](OC)[C@H](O)[C@@H](O)[C@H](O)/C=C/C(C)C)C(=O)NC1` , respond with its growth inhibition.
96% (active)

Given `CCc1c[c]([Hg][Cl])c(CC)c(CC)c1CC` , respond with its growth inhibition.
99% (active)

----------
- measurementProtocol: NCI Yeast Anticancer Drug Screen. Data for the mlh1 rad18 strain (AID 175)
- testParameters: S. cerevisiae mlh1 rad18 strain growth inhibition; at 50.0 µM; hits give high values
About 79,000 compounds went through this panel and 15% of them were active in at least one assay; those are over-represented in the sample as a whole.
Quick rule for you: growth inhibition at 30% or higher means satisfied, lower means not satisfied.

Use these answered entries as a reference point.
Textbook exercise: given the entry CC12CCC3C(CCC4=CC(=O)CCC43C=O)C1CCC2Oc1ccccc1 (stereo not given) , state whether its growth inhibition is greater than or equal to 30%.
not satisfied

Textbook exercise: given the entry C1=CC(N2CCOCC2)CC1 (stereo not given) , state whether its growth inhibition is greater than or equal to 30%.
not satisfied

Textbook exercise: given the entry `CCC1(CCNC(=O)CNC(C)=O)C(=O)NC(=O)NC1=O` , state whether its growth inhibition is greater than or equal to 30%.
not satisfied

Textbook exercise: given the entry `Cc1cc(N(CCCl)CCCl)ccc1C=Nc1ccc(F)cc1[N+](=O)[O-]` , state whether its growth inhibition is greater than or equal to 30%.
not satisfied

Textbook exercise: given the entry `CC(C)N(C#N)C(C)C` , state whether its growth inhibition is greater than or equal to 30%.
not satisfied

Textbook exercise: given the entry `CC[PH+](CC)CC[S-].CC[PH+](CC)CC[S-].[Au+].[Au+]` , state whether its growth inhibition is greater than or equal to 30%.
not satisfied

Textbook exercise: given the entry C[C@]12C/C(=C/O)C(=O)C(O)=C1CC[C@@H]1C2CC[C@@]2(C)C1CC[C@@H]2O (stereo not given in full) , state whether its growth inhibition is greater than or equal to 30%.
satisfied

Textbook exercise: given the entry `[Br][Co][Br].[NH-]CC[NH-].[NH-]CC[NH-]` , state whether its growth inhibition is greater than or equal to 30%.
not satisfied

Next:
Textbook exercise: given the entry `CCCCCCCCCCCOP(=O)(OCC)OCC` , state whether its growth inhibition is greater than or equal to 30%.
satisfied

Textbook exercise: given the entry `ClCC[Se](Cl)(Cl)c1ccccc1` , state whether its growth inhibition is greater than or equal to 30%.
satisfied

Textbook exercise: given the entry CCCCCCOC(=O)C(N)Cc1ccc(OC)c(N(CCCl)CCCl)c1 (stereo not given) , state whether its growth inhibition is greater than or equal to 30%.
not satisfied

Textbook exercise: given the entry CCOC(=O)C(C)Br (stereo not given) , state whether its growth inhibition is greater than or equal to 30%.
not satisfied

Textbook exercise: given the entry O=C(O)C(CSC(c1ccccc1)c1ccccc1)NC(=O)C(c1ccccc1)c1ccccc1 (stereo not given) , state whether its growth inhibition is greater than or equal to 30%.
satisfied

Textbook exercise: given the entry `Oc1ccc(Cc2ccc(O)cc2)cc1` , state whether its growth inhibition is greater than or equal to 30%.
not satisfied

Textbook exercise: given the entry `CCOP(=O)(OCC)Oc1cc(C)c(SC)c(C)c1` , state whether its growth inhibition is greater than or equal to 30%.
not satisfied
